Give measured red/green cell ratio (normalised) for each item. Keep answers brief.
# ASSAY_OVERVIEW: differential killing of epithelial or mesenchymal cells, primary screen, imaging, PC-3E GFP, TEM4-18 mCherry, co-culture (AID 1345086);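 further: normalised mesenchymal count divided by normalised epithelial count so high means epithelial killing; cells exposed to compound for 72 h before imaging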
# EXPERIMENTAL_CONDITIONS: imaging cell counts, at 1 µM, actives lie on both sides, counts scaled to control wells, 1 = unselective
Activity calls are given as the source filed them.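 How the source made its calls: active means compounds killing one labelled cell type while sparing the other, by normalised counts and ratio limits, not self-fluorescent; inactive means the rest.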

The recorded red/green cell ratio (normalised) for entry "CCCc1nc(C(C)(C)O)c(C(=O)O)n1Cc1ccc(-c2ccccc2-c2nn[nH]n2)cc1" equals 1.01 (inactive)

red/green cell ratio (normalised) reported for this compound "COc1c(O)cc2c(c1O)C(=O)O[C@@H](C)[C@@H]2O" : 1 (inactive)

Sample C[C@@H](O)[C@H]1C(=O)N2C(C(=O)O)=C(SC3CN[C@H](C(=O)N(C)C)C3)[C@H](C)[C@H]12 (some centres undefined) ; red/green cell ratio (normalised) observed: 1.01 (inactive)

Entry under test: CC(=O)OC1CC(C)OC(=O)CCC(O)CC1=O (centres undefined) . Its red/green cell ratio (normalised) was 0.98 (inactive)
